B1: TPR t1 (parent)
chain: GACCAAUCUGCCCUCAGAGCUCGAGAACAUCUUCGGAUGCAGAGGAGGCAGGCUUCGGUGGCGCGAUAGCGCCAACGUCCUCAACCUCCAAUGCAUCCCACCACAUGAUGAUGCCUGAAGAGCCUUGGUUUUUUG

- Variants of: B1
- test.details: polymerase ribozyme fitness, log enrichment relative to wild type (log ratio); higher = more active; in vitro selection for triplet polymerase activity
Outcome: 1 for polymerase ribozyme fitness (log ratio) of at least -3; -1 for anything lower.

[[record]]
mutation_descriptor = "G36C G51C C70U U87A C94U C123U"
classification = -1

[[record]]
mutation_descriptor = "U14A C49U G52U C76A"
classification = -1

[[record]]
mutation_descriptor = "C49U A50U C82U"
classification = 1

[[record]]
mutation_descriptor = "A2C G45A C53A"
classification = 1

[[record]]
mutation_descriptor = "A41U C53G C62G A84U U112A"
classification = -1

[[record]]
mutation_descriptor = "A46C G48A"
classification = 1

[[record]]
mutation_descriptor = "G39U A50U"
classification = 1

[[record]]
mutation_descriptor = "A5G G42U C115U"
classification = 1

[[record]]
mutation_descriptor = "G35C C88U"
classification = -1

[[record]]
mutation_descriptor = "C15G U112A"
classification = 1

[[record]]
mutation_descriptor = "G45U C94U C102U"
classification = -1

[[record]]
mutation_descriptor = "U9C U32C U109G"
classification = -1

[[record]]
mutation_descriptor = "G35U A46G G69U C98A"
classification = 1

[[record]]
mutation_descriptor = "U30G A43U A91U G113U"
classification = -1

[[record]]
mutation_descriptor = "C4A G36A"
classification = 1

[[record]]
mutation_descriptor = "A121C G127A G128U"
classification = 1

[[record]]
mutation_descriptor = "G10U C53U G65A A91U C104G A121U"
classification = -1

[[record]]
mutation_descriptor = "G93C G117C"
classification = -1

[[record]]
mutation_descriptor = "A95U G113A"
classification = 1

[[record]]
mutation_descriptor = "A95C U109A"
classification = -1

[[record]]
mutation_descriptor = "C8G A121G"
classification = 1

[[record]]
mutation_descriptor = "C49U C104A"
classification = 1

[[record]]
mutation_descriptor = "U7G G69C C86U"
classification = 1

[[record]]
mutation_descriptor = "U96G A100U C104U"
classification = 1

[[record]]
mutation_descriptor = "A16G C124U"
classification = 1

[[record]]
mutation_descriptor = "C40U G58C"
classification = 1

[[record]]
mutation_descriptor = "A26G C72A C86G A111U G122U"
classification = -1

[[record]]
mutation_descriptor = "C4G G61U"
classification = 1

[[record]]
mutation_descriptor = "C8U C124U"
classification = 1

[[record]]
mutation_descriptor = "C34G G63A"
classification = -1

[[record]]
mutation_descriptor = "C4U U87A"
classification = 1

[[record]]
mutation_descriptor = "A26G G61C C86U"
classification = -1

[[record]]
mutation_descriptor = "C15G U92G C97U A118U"
classification = -1

[[record]]
mutation_descriptor = "A37G U96A"
classification = -1

[[record]]
mutation_descriptor = "U7G C88U"
classification = 1

[[record]]
mutation_descriptor = "A18U C76A C94U U112C"
classification = 1

[[record]]
mutation_descriptor = "C12A G61A C64U"
classification = -1

[[record]]
mutation_descriptor = "G44U G77C"
classification = 1

[[record]]
mutation_descriptor = "G47C C64A C104U"
classification = -1

[[record]]
mutation_descriptor = "A27G A46U G57C U81A A83C C104A G117C G122A"
classification = -1

[[record]]
mutation_descriptor = "G60A G117U"
classification = 1

[[record]]
mutation_descriptor = "G10A U81A"
classification = 1

[[record]]
mutation_descriptor = "C12G A83G C88G U125G"
classification = 1

[[record]]
mutation_descriptor = "C12U U78C G110U"
classification = 1

[[record]]
mutation_descriptor = "C22U G45U C72A"
classification = -1

[[record]]
mutation_descriptor = "G10U G93A C99U"
classification = -1

[[record]]
mutation_descriptor = "C11U C104G"
classification = -1

[[record]]
mutation_descriptor = "C56A G61C"
classification = -1

[[record]]
mutation_descriptor = "A37C G44A A50U G120U"
classification = -1

[[record]]
mutation_descriptor = "C28U A100C C102U U112C"
classification = -1

[[record]]
mutation_descriptor = "C79G C82U U130A"
classification = 1

[[record]]
mutation_descriptor = "C72G"
classification = 1

[[record]]
mutation_descriptor = "C53A U87A A90G C97G U112A"
classification = -1

[[record]]
mutation_descriptor = "C12U C99A"
classification = -1

[[record]]
mutation_descriptor = "A5G U112C C124G G128A"
classification = 1

[[record]]
mutation_descriptor = "G45A G52A C89U U92A G120U"
classification = -1

[[record]]
mutation_descriptor = "A5C A74G C85A C104U"
classification = 1

[[record]]
mutation_descriptor = "C22G U38G A43G G113U A119G"
classification = -1

[[record]]
mutation_descriptor = "U14A C70G U125A"
classification = -1

[[record]]
mutation_descriptor = "U7G U21A U55G A121C"
classification = 1

[[record]]
mutation_descriptor = "C3U G10U A29G G44U G57C C82U A105U G120C"
classification = -1

[[record]]
mutation_descriptor = "G71A U92A A95U"
classification = -1

[[record]]
mutation_descriptor = "U9C C70U"
classification = 1

[[record]]
mutation_descriptor = "C73U U78A C88G G120U"
classification = 1

[[record]]
mutation_descriptor = "G60C G117C A121C"
classification = -1

[[record]]
mutation_descriptor = "C49U A50C A111G"
classification = 1

[[record]]
mutation_descriptor = "G69A U81G A84C G93U C97G U112A"
classification = -1

[[record]]
mutation_descriptor = "C12G G36U C56U A121U G122U"
classification = 1

[[record]]
mutation_descriptor = "A18C G135U"
classification = -1

[[record]]
mutation_descriptor = "C15A G57U C64G"
classification = -1

[[record]]
mutation_descriptor = "C13A G120A"
classification = 1

[[record]]
mutation_descriptor = "C13U U96A"
classification = 1

[[record]]
mutation_descriptor = "A5C C8U A16U G45U G63A"
classification = 1

[[record]]
mutation_descriptor = "C8G G39U C80A"
classification = 1

[[record]]
mutation_descriptor = "G120C C124U"
classification = 1

[[record]]
mutation_descriptor = "C8A A50U U59C G63C"
classification = -1

[[record]]
mutation_descriptor = "U55C U59G C114U"
classification = 1

[[record]]
mutation_descriptor = "C11G A27G G39U G107U A121G U125G"
classification = -1

[[record]]
mutation_descriptor = "G69C A95G"
classification = 1

[[record]]
mutation_descriptor = "C3G C82A"
classification = 1

[[record]]
mutation_descriptor = "G39C C97A"
classification = -1

[[record]]
mutation_descriptor = "C40U A43C G93C C115A"
classification = 1

[[record]]
mutation_descriptor = "C123U U129A"
classification = 1

[[record]]
mutation_descriptor = "A2G G36A C49G G61U A83U G110U U129C"
classification = -1

[[record]]
mutation_descriptor = "A18G C80U"
classification = -1

[[record]]
mutation_descriptor = "U7G G23C C82U C86G G110C"
classification = -1

[[record]]
mutation_descriptor = "A29U A46G U125A"
classification = 1


// data source = the RNAGym collection of RNA variant scans (doi:10.1073/pnas.2313332121)
